The measured values listed here are drawn from ChEMBL document CHEMBL4888484.

The entries below are paired with their reported Z score.
Tested on: Plasmodium falciparum
Experiment: Primary screen in NF54 nanoGlo assay, in single point, at 2uM, 72h; a lower Z score goes with more inhibition
Type: functional, Erythrocyte
Settings: timepoint 72 hour
Out of some 150,000 compounds screened, about 540 (0.36%) showed an effect of 50% or more. The full list was thinned out, with strong results kept by preference.
Form field (numeric): enter value without unit.

Examples from the recorded data:
Noted for CC(CCO)C1(CNC(=O)NCC2CCCO2)CCC1 (configuration not stated) : its Z score reads 1.25

Noted for Cc1ccccc1C(=O)N(Cc1cccc(F)c1)c1ccc(CC(=O)NCCN2CCCCC2)cc1 : its Z score reads -4.25

Noted for CCCN(CCC)C(=O)c1cc(F)ccc1OC : its Z score reads 1.09

Noted for O=C(Nc1nncs1)c1cccc(C(=O)Nc2nncs2)n1 : its Z score reads -14.68

Noted for COc1ccc(NC(=O)[C@H](NC(=O)Cc2c[nH]c3ccccc23)c2ccc(C)cc2)cc1 : its Z score reads 1.46

Noted for Cc1ccccc1C(=O)N(Cc1ccc(F)cc1)c1cccc(CC(=O)NCCN2CCCC2)c1 : its Z score reads -0.6

Next:
Noted for COc1ccc(C(=O)Nc2ccc3nc4c(c(Nc5ccc(OC)c(OC)c5)c3c2)CCCC4)c(OC)c1 : its Z score reads 0.97

Noted for CNc1cccc(C(=O)Nc2nncs2)n1 : its Z score reads 1.62

Noted for Cc1nnc([C@@]23COC[C@@H]2CN(C(=O)c2cccc4[nH]ccc24)C3)o1 : its Z score reads 1.33

Noted for Cc1nnc(CN2CCC[C@H](c3nc(C(C)C)cs3)C2)s1 : its Z score reads 1.01

Noted for O=C(Cc1ccc(N(Cc2cccc(F)c2)C(=O)C2CCCC2)cc1)NCCN1CCCC1 : its Z score reads -2.85

Noted for Cc1cc(NC(=O)c2ccc(Cl)c(F)c2)nc(=O)[nH]1 : its Z score reads 0.38

Noted for CN1CCC[C@@H]1CCNC(=O)c1ccc2nc(-c3ccc(F)cc3)cn2c1 : its Z score reads -1.12

Noted for CCC(=O)N(Cc1cccc(F)c1)c1ccc(CC(=O)NCCN2CCCC2)cc1 : its Z score reads 0.24

Noted for Cc1ccc(CN(C(=O)c2ccccc2C)c2cccc(CC(=O)NCCN3CCCC3)c2)cc1 : its Z score reads 1.17

Noted for COc1ccc(Br)c(S(=O)(=O)NCC2(C)CCC2)c1 : its Z score reads -0.23

Noted for O[C@@H](CN1CCC(c2ccn[nH]2)CC1)C(F)(F)F : its Z score reads -3.09

Noted for O=C(Nc1ccc(Cl)cn1)c1cccc2ccccc12 : its Z score reads 1.15

Noted for CCCCNC(=O)N1CC[C@H](c2ccn[nH]2)C1 : its Z score reads 1.68
